test: Kinetic analysis of STS metabolism by human liver microsomes; assay type: in vitro ADME; conditions: human, human liver microsomes, pH 7.4

>  <COMPOUND>
Cc1c(S(=O)(=O)O)oc2c1C(=O)C(=O)c1c-2ccc2c1CCCC2(C)C [STS, sodium tanshinone IIA sulfonate]

>  <Km, µM>
54.8

$$$$

* * *

target: CYP2E1 (Homo sapiens); construct: tissue Cypex Ltd. (UK); host or cells: pooled human liver microsomes, ten donors; assay: Inhibition of chlorzoxazone 6-hydroxylation in HLMs; assay type: in vitro ADME; details: classification of Kong et al.; read-out: potency class of inhibitor by IC50
Sequence (P05181 whole entry): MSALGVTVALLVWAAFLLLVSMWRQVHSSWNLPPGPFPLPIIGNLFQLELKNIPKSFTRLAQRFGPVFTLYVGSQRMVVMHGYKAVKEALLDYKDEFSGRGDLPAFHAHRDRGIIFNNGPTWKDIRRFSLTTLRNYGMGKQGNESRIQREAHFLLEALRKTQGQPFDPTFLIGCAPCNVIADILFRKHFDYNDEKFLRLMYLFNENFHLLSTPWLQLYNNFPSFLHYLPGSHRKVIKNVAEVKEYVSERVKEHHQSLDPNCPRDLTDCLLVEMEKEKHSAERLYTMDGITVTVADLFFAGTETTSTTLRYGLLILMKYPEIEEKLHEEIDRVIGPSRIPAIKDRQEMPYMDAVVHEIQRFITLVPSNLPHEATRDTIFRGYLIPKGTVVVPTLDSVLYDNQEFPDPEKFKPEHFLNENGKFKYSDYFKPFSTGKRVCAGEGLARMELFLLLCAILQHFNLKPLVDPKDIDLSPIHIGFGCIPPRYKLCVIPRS

>  <COMPOUND>
Cc1c(S(=O)(=O)O)oc2c1C(=O)C(=O)c1c-2ccc2c1CCCC2(C)C [STS, sodium tanshinone IIA sulfonate]

>  <IC50>
≥ 50 µM

$$$$

Recorded values, source paper PMC4802617.
